Every entry's value here was drawn from paper PMC7164687.

- run-description: Cytotoxicity assay in PXB cells
- Assay type: cell-based
- setup-conditions: human, CC50 in PXB cells, PXB cells, continuous exposure; mean ± 1 S.D.
quantity: CC50 (µM)

N#C[C@]1(CO)O[C@@H](n2cnc3c(N)ncnc32)C[C@@H]1O [CdA, 4’-C-cyano-2’-deoxyadenosine] | 5.4
C=C1[C@H](CO)[C@@H](O)C[C@@H]1n1cnc2c(=O)[nH]c(N)nc21 [ETV, entecavir] | 252
CC(C)(C)C(=O)OCOP(=O)(COCCn1cnc2c(N)ncnc21)OCOC(=O)C(C)(C)C [ADV, adefovir dipivoxil] | 71.5
N#C[C@]1(CO)O[C@@H](n2cnc3c(=O)[nH]c(N)nc32)C[C@@H]1O [CdG, 4’-C-cyano-2’-deoxyguanosine] | 0.37

====

- run-description: Cytotoxicity assay in PXB cells
- Format: cell-based
- setup-conditions: human
quantity: CC50

CC(C)OC(=O)[C@H](C)N[P@](=O)(CO[C@H](C)Cn1cnc2c(N)ncnc21)Oc1ccccc1 [TAF, tenofovir alafenamide] | 5.7 µM

====

- run-description: Cytotoxicity assay in PXB cells
- Assay type: cell-based
- setup-conditions: human, PXB cells
Structures can show the parent of a compound that is named as a salt.
quantity: CC50 (µM)

CC(C)OC(=O)OCOP(=O)(CO[C@H](C)Cn1cnc2c(N)ncnc21)OCOC(=O)OC(C)C [TDF, tenofovir disoproxil fumarate] | 33.4

====

- Test system: PXB cells
- run-description: Cytotoxicity assay in PXB cells
- Assay type: cell-based
- setup-conditions: read-out: CC50 in PXB cells; PXB cells, continuous exposure; mean ± 1 S.D.
quantity: CC50 (µM)

N#C[C@]1(CO)O[C@@H](n2cc(F)c3c(N)ncnc32)C[C@@H]1O | 55.9
